- PROCEDURE_DETAILS: Retardation factor of the compound by silica gel thin-layer chromatography
REPORTED_ENDPOINT: Rf
// response body must contain only the number

I'd like to know its Rf. The molecule in question is NC(=O)CC[C@@H]1NC(=O)[C@H](Cc2ccccc2)NC(=O)[C@H](Cc2ccc(O)cc2)NC(=O)CCSSC[C@@H](C(=O)N2CCC[C@H]2C(=O)N[C@H](CCCN=C(N)N)C(=O)NCC(N)=O)NC(=O)[C@H](CC(N)=O)NC1=O (stereo in doubt; 4) [DESMOPRESSIN]
0.18

I'd like to know its Rf. The molecule in question is NC(=O)CC[C@@H]1NC(=O)[C@H](Cc2ccccc2)NC(=O)[C@H](Cc2ccc(O)cc2)NC(=O)CCSSC[C@@H](C(=O)N2CCC[C@H]2C(=O)N[C@H](CCCN=C(N)N)C(=O)NCC(N)=O)NC(=O)[C@H](CC(N)=O)NC1=O (stereo in doubt; 6) [DESMOPRESSIN]
0.21

I'd like to know its Rf. The molecule in question is NC(=O)CC[C@@H]1NC(=O)[C@H](Cc2ccccc2)NC(=O)[C@H](Cc2ccc(O)cc2)NC(=O)[C@@H](N)CSSC[C@@H](C(=O)N2CCC[C@H]2C(=O)N[C@H](CCCN=C(N)N)C(=O)NCC(N)=O)NC(=O)[C@H](CC(N)=O)NC1=O
0.1

I'd like to know its Rf. The molecule in question is C[C@@H](O)[C@@H]1NC(=O)[C@H](Cc2ccccc2)NC(=O)[C@H](Cc2ccc(O)cc2)NC(=O)CCSSC[C@@H](C(=O)N2CCC[C@H]2C(=O)N[C@H](CCCNC(=N)N)C(=O)NCC(N)=O)NC(=O)[C@H](CC(N)=O)NC1=O
0.24

----------
- Organism: Rattus norvegicus
- PROCEDURE_DETAILS: Vasopressor activity in rat
- Assay type: organism-based
- TEST_CONDITIONS: in vivo
REPORTED_ENDPOINT: Activity (U/mg)
Note: unit U/mg is implicit; provide only the numeric part.

I'd like to know its Activity. The compound in question is NC(=O)CC[C@@H]1NC(=O)[C@H](Cc2ccccc2)NC(=O)[C@H](Cc2ccc(O)cc2)NC(=O)CCSSC[C@@H](C(=O)N2CCC[C@H]2C(=O)N[C@H](CCCN=C(N)N)C(=O)NCC(N)=O)NC(=O)[C@H](CC(N)=O)NC1=O (stereo in doubt; 4) [DESMOPRESSIN]
346

I'd like to know its Activity. The compound in question is NC(=O)CC[C@@H]1NC(=O)[C@H](Cc2ccccc2)NC(=O)[C@H](Cc2ccc(O)cc2)NC(=O)[C@@H](N)CSSC[C@@H](C(=O)N2CCC[C@H]2C(=O)N[C@H](CCCN=C(N)N)C(=O)NCC(N)=O)NC(=O)[C@H](CC(N)=O)NC1=O
1.1

I'd like to know its Activity. The compound in question is C[C@@H](O)[C@@H]1NC(=O)[C@H](Cc2ccccc2)NC(=O)[C@H](Cc2ccc(O)cc2)NC(=O)CCSSC[C@@H](C(=O)N2CCC[C@H]2C(=O)N[C@@H](CCCN=C(N)N)C(=O)NCC(N)=O)NC(=O)[C@H](CC(N)=O)NC1=O
30

I'd like to know its Activity. The compound in question is NC(=O)CC[C@@H]1NC(=O)[C@H](Cc2ccccc2)NC(=O)[C@H](Cc2ccc(O)cc2)NC(=O)CCSSC[C@@H](C(=O)N2CCC[C@H]2C(=O)N[C@H](CCCN=C(N)N)C(=O)NCC(N)=O)NC(=O)[C@H](CC(N)=O)NC1=O (stereo in doubt; 6) [DESMOPRESSIN]
0.39

----------
- Species: Rattus norvegicus
- PROCEDURE_DETAILS: Ratio of antidiuretic activity in rat to vasopressor activity in rat
- Parameters: species or system Urine
REPORTED_ENDPOINT: Ratio
// response body must contain only the number

I'd like to know its Ratio. The compound in question is NC(=O)CC[C@@H]1NC(=O)[C@H](Cc2ccccc2)NC(=O)[C@H](Cc2ccc(O)cc2)NC(=O)CCSSC[C@@H](C(=O)N2CCC[C@H]2C(=O)N[C@H](CCCN=C(N)N)C(=O)NCC(N)=O)NC(=O)[C@H](CC(N)=O)NC1=O (stereo in doubt; 4) [DESMOPRESSIN]
4

I'd like to know its Ratio. The compound in question is N=C(N)NCCC[C@H](NC(=O)[C@@H]1CCCN1C(=O)[C@@H]1CSSC[C@H](N)C(=O)N[C@@H](Cc2ccc(O)cc2)C(=O)N[C@@H](Cc2ccccc2)C(=O)N[C@@H](CCC(N)=O)C(=O)N[C@@H](CC(N)=O)C(=O)N1)C(=O)NCC(N)=O
1

I'd like to know its Ratio. The compound in question is NC(=O)CC[C@@H]1NC(=O)[C@H](Cc2ccccc2)NC(=O)[C@H](Cc2ccc(O)cc2)NC(=O)[C@@H](N)CSSC[C@@H](C(=O)N2CCC[C@H]2C(=O)N[C@H](CCCN=C(N)N)C(=O)NCC(N)=O)NC(=O)[C@H](CC(N)=O)NC1=O
30

I'd like to know its Ratio. The compound in question is NC(=O)CC[C@@H]1NC(=O)[C@H](Cc2ccccc2)NC(=O)[C@H](Cc2ccc(O)cc2)NC(=O)CCSSC[C@@H](C(=O)N2CCC[C@H]2C(=O)N[C@H](CCCN=C(N)N)C(=O)NCC(N)=O)NC(=O)[C@H](CC(N)=O)NC1=O (stereo in doubt; 6) [DESMOPRESSIN]
80
